Value source: PubChem BioAssay (NCI)

Each item that follows carries a reported TGI.
- Tested on: NCI-H460 lung
- EXPERIMENT: NCI tumour cell line growth inhibition, 48 h

MOLECULE | SUBJECT OF TEST | RESULT VALUE
Nc1c(C(=O)Nc2ccccc2O)[n+]([O-])c2ccccc2[n+]1[O-] | NCI-H460 lung | > 100 µM

Query block: TGI lookup needed for CC1(C)CC(O)CC(C)(C)N1.CC1(C)CC(O)CC(C)(C)N1.CC1(C)CC(O)CC(C)(C)N1.CC1(C)CC(O)CC(C)(C)N1.Cl.[Ti] , thanks.
Result block: > 100 µM

Query block: TGI lookup needed for O=C1Nc2ccccc2C1S(=O)(=O)c1ccccc1 (stereo not given) , thanks.
Result block: > 100 µM

Query block: TGI lookup needed for Nc1nc2c(c(=O)[nH]1)NC(CCNc1ccc(C(=O)O)cc1)CN2 (stereo not given) , thanks.
Result block: > 100 µM

Query block: TGI lookup needed for CN(CCCNC(=O)c1c2ccc3ccccc3c2nn1C)CCCNC(=O)c1c2ccc3ccccc3c2nn1C , thanks.
Result block: 18.4 µM

Query block: TGI lookup needed for CCCCOCCOCCOC1=C(Cl)C(=O)c2c(O)ccc(O)c2C1=O , thanks.
Result block: 4.4 µM

Query block: TGI lookup needed for CC(=O)Oc1ccc(/C=C/C(=O)NCCOC(=O)/C=C/c2ccc(OC(C)=O)c(OC(C)=O)c2)cc1OC(C)=O , thanks.
Result block: > 100 µM

Query block: TGI lookup needed for CC(C)=CC(=O)CC(=O)C(=O)NCCNC(=O)C(=O)CC(=O)C=C(C)C , thanks.
Result block: > 50 µM

Query block: TGI lookup needed for CCN(CC)CCS(=O)(=O)CCNc1ccnc2cc(Cl)ccc12 , thanks.
Result block: > 25.7 µM

Query block: TGI lookup needed for CC(=O)Oc1ccc2cc(Oc3ccccc3)c(=O)oc2c1 , thanks.
Result block: > 100 µM

###

- Test system: NCI-H226 lung
- EXPERIMENT: NCI tumour cell line growth inhibition, 48 h
Each item that follows carries a reported TGI.

MOLECULE | SUBJECT OF TEST | MEASURED PARAMETER | RESULT VALUE
Cc1ccc2oc3c(ccc(=O)n3C)c(=O)c2c1 | NCI-H226 lung | TGI | > 100 µM
CCN(CC)C(=S)SSCCO | NCI-H226 lung | TGI | > 100 µM
CCCCC1Cc2cc(OC)ccc2-c2n1c1cc(OC)ccc1[n+]2C (stereo unspecified) (tested in a mixture with another compound) | NCI-H226 lung | TGI | 24.2 µM

Query block: TGI lookup needed for COc1cccc(-c2[nH]c3cc4c(cc3c(=O)c2C(=O)O)OCO4)c1 , thanks.
Result block: > 100 µM

Query block: TGI lookup needed for CC1CCN(c2cc(-c3cc4ccccc4o3)oc(=O)c2C#N)CC1 , thanks.
Result block: > 100 µM

Query block: TGI lookup needed for CN(c1ccc(NC(=O)NCCN2CCOCC2)cc1)c1ccnc(Nc2ccc(CS(C)(=O)=O)cc2)n1 , thanks.
Result block: > 25 µM

Query block: TGI lookup needed for C/C(CC(=O)Nc1cccc(Cl)c1C)=N\N=C(N)N , thanks.
Result block: > 100 µM

Query block: TGI lookup needed for O=C1CC(=O)NC(=NN2C(=O)/C(=C/c3ccc(Cl)cc3)N=C2c2ccccc2)N1 , thanks.
Result block: 31.5 µM

Query block: TGI lookup needed for CCOc1cc2c(cc1O)CC[C@@H]1[C@@H]2CC[C@]2(C)[C@@H](O)CC[C@@H]12 , thanks.
Result block: 3.95 µM

Query block: TGI lookup needed for CCN(CCNc1ccc(C)c2sc3cc(Cl)ccc3c(=O)c12)CC(C)(C)O , thanks.
Result block: 30.7 µM
